- test-summary: passive permeability, PAMPA, ADME assay (AID 1508612)
- test-parameters: pH 7.4, 30.0 min, 50.0 µM
measurement-kind: Papp

# count of solved cases: 2
# compound, value-reported
rows = [
    ("Cc1cnc(-c2ccccc2C(C)C)nc1NCc1ccc(-n2ccnn2)cc1", "> 10000 nm/s"),
    ("COc1ccc(-c2ccc3nc(-c4cc(C)cc(C)c4)oc3c2)c(OC)c1OC", "< 10 nm/s"),
]

The record that follows has no Papp shown yet.
Query: Quick one: Papp for COc1cc(O)c([C@H](CC(=O)N2CC(C)CC(C)C2)c2ccc3c(c2)OCO3)c(OC)c1 (stereo partly drawn) ?
Reply: > 10000 nm/s
